Data provenance is the MegaScale stability set (Tsuboyama et al. 2023).

B1: 5KPH (parent)
chain: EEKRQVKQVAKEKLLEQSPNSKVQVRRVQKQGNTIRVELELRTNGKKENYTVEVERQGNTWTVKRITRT

# Variants of: B1
# assay text: folding stability dG (cDNA display proteolysis); higher = more stable
# stated conditions: PBS, room temperature
Kindly state folding stability dG for each of the entries shown.
One number for each entry, in kcal/mol.

Study these solved cases before continuing.
>>> df
                                 seq_string             parameter  observed
0  EGKRQVKQVAKEKLLEQSPNSKVQVRRVQKQGNTIRVELELRTNGKKENYTVEVERQGNTWTVKRITRT  folding stability dG      3.24
1  EEKRQVKQVAKEHLLEQSPNSKVQVRRVQKQGNTIRVELELRTNGKKENYTVEVERQGNTWTVKRITRT  folding stability dG      3.57
2  EEKRQVKQVAKEKLLEQSPNSKVQVRRVQKQRNTIRVELELRTNGKKENYTVEVERQGNTWTVKRITRT  folding stability dG      3.03

Provide reported folding stability dG for each item, in the same order as listed.
1. EEKNQVKQVAKEKLLEQSPNSKVQVRRVQKQGNTIRVELELRTNGKKENYTVEVERQGNTWTVKRITRT
2. EEKRQVKQVAKEKLLEQSPNSKVQVRRVQKQGNTIRVELELRTGGKKENYTVEVERQGNTWTVKRITRT

Reply text:
1: 3.72; 2: 3.79
